Origin of values: ChEMBL document CHEMBL5154688

For each record, write down the corresponding IC50.
Target: Bromodomain-containing protein 4 (Homo sapiens)
Assay: Inhibition of BRD4 BD2 (unknown origin) incubated for 30 mins in presence of fluorescent ligand by TR-FRET method
One number for each entry, in nM.

>  <Sample Smiles>
CC(=O)N1c2ccc(F)cc2[C@H](Nc2ccc(C#N)cn2)C[C@@H]1C

>  <IC50, nM>
316

$$$$
>  <Sample Smiles>
CC(=O)N1c2ccc(C(N)=O)cc2[C@H](Nc2cccc(Cl)c2)C[C@@H]1C

>  <IC50, nM>
20

$$$$
>  <Sample Smiles>
CC(=O)N1c2ccc(F)cc2[C@H](Nc2cnc(C)cn2)C[C@@H]1C

>  <IC50, nM>
631

$$$$
>  <Sample Smiles>
CC(=O)N1c2ccc(C(N)=O)cc2[C@H](Nc2ccc(Cl)cn2)C[C@@H]1C

>  <IC50, nM>
79.4

$$$$

Query compound follows.
Sure, the documented IC50 for CC(=O)N1c2ccc(C#N)cc2[C@H](Nc2cnc(C#N)cn2)C[C@@H]1C is 501

###

Test: Unbound fraction in Beagle dog blood at 3 mg/kg, po or 1.0 mg/kg, iv by LC-MS/MS analysis
Type: ADME, organism-based, Canis lupus familiaris
Measured Property: fraction unbound
Give bare numbers.

Sure, the documented fraction unbound for CC(=O)N1c2ccc(C(N)=O)cc2[C@H](Nc2ncc(Cl)cn2)C[C@@H]1C is 0.41

###

Target: UniProtKB Q12809
Sequence (Q12809 whole entry): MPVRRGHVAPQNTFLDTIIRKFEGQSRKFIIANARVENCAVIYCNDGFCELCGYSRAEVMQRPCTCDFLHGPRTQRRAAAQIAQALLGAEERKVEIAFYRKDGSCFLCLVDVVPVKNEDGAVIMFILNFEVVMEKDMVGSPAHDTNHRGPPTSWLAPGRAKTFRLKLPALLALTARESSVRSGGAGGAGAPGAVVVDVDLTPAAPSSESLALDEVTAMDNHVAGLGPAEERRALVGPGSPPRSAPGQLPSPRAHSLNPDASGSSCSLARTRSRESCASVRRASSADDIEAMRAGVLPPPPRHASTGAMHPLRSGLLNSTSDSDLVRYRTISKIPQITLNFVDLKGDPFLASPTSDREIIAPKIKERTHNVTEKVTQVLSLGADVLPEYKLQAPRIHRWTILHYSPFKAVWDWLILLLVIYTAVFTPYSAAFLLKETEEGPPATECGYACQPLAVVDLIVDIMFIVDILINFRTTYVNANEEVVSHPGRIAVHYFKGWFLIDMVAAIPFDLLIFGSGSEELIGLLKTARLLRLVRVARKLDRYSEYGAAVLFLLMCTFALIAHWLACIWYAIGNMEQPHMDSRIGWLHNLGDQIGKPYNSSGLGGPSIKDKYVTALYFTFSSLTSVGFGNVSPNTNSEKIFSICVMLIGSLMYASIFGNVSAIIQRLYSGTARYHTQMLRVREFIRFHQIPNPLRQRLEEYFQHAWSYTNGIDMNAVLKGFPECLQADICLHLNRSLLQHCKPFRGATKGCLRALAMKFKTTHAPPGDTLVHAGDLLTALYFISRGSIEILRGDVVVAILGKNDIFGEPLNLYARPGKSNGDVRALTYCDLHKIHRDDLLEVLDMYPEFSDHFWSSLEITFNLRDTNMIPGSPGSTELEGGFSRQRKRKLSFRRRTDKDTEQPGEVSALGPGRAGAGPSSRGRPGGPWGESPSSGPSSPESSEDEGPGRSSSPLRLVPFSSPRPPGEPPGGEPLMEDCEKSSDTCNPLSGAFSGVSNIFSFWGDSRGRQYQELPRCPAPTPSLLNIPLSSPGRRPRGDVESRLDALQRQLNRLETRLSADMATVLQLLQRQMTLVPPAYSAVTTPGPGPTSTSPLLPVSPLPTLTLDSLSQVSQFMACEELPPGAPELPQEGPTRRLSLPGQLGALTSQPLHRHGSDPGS
For each record, write down the corresponding IC50.

Solved entries:
>  <Sample Smiles>
CC(=O)N1c2ccc(C(N)=O)cc2[C@H](Nc2ccc(Cl)cn2)C[C@@H]1C

>  <Measured On>
UniProtKB Q12809

>  <IC50>
> 50.1 µM

$$$$
>  <Sample Smiles>
CCNC(=O)c1ccc2c(c1)[C@H](Nc1ccc(C#N)cn1)C[C@H](C)N2C(C)=O

>  <Measured On>
UniProtKB Q12809

>  <IC50>
> 50.1 µM

$$$$

Sure, the documented IC50 for CC(=O)N1c2ccc(C(N)=O)cc2[C@H](Nc2ncc(Cl)cn2)C[C@@H]1C is > 50.1 µM

###

Assay: Renal clearance in Wistar Han rat at 3 mg/kg, po or 1.3 mg/kg, iv upto 24 hrs by LC-MS/MS analysis
Format: ADME, organism-based
Settings: in vivo
Measured Property: CL renal at 24 h (mL/min/kg)
One number for each entry, in mL/min/kg.

Sure, the documented CL renal at 24 h for CC(=O)N1c2ccc(C(N)=O)cc2[C@H](Nc2ncc(Cl)cn2)C[C@@H]1C is 7

###

For each record, write down the corresponding solubility at 16 h.
Test: Solubility of the compound at pH 6.5 in fast state simulated intestinal fluid incubated for 16 hrs by HPLC analysis
Assay type: physicochemical
Conditions: fasted state simulated intestinal fluid (FaSSIF)
Give bare numbers, in mg/mL.

>  <Sample Smiles>
CC(=O)N1c2ccc(C(N)=O)cc2[C@H](Nc2cccc(Cl)c2)C[C@@H]1C

>  <Measured Property>
solubility at 16 h

>  <Observed>
0.033

$$$$

Query compound follows.
Sure, the documented solubility at 16 h for CC(=O)N1c2ccc(C#N)cc2[C@H](Nc2cnc(C#N)cn2)C[C@@H]1C is 0.06

###

The following are reported IC50 results, target or system Cytochrome P450 3A4 (Homo sapiens, UniProt P08684).

>  <Sample Smiles>
CC(=O)N1c2ccc(C(N)=O)cc2[C@H](Nc2ncc(Cl)cn2)C[C@@H]1C

>  <IC50>
> 39.8 µM

$$$$
>  <Sample Smiles>
CC(=O)N1c2ccc(C(N)=O)cc2[C@H](Nc2ccc(Cl)cn2)C[C@@H]1C

>  <IC50>
> 39.8 µM

$$$$

The reported Cytochrome P450 3A4 (Homo sapiens, UniProt P08684) IC50 of CCNC(=O)c1ccc2c(c1)[C@H](Nc1ccc(C#N)cn1)C[C@H](C)N2C(C)=O is > 39.8 µM

###

Molecular target: Bromodomain-containing protein 4 (Homo sapiens, UniProt O60885)
Assay: Binding affinity to BRD4 BD1 (unknown origin) assessed as dissociation constant
Measured Property: Kd (nM)
One number for each entry, in nM.

Sure, the documented Kd for CC(=O)N1c2ccc(C(N)=O)cc2[C@H](Nc2ncc(Cl)cn2)C[C@@H]1C is 25.1

###

Target: Bromodomain-containing protein 3 (Homo sapiens)
Sequence (Q15059 whole entry): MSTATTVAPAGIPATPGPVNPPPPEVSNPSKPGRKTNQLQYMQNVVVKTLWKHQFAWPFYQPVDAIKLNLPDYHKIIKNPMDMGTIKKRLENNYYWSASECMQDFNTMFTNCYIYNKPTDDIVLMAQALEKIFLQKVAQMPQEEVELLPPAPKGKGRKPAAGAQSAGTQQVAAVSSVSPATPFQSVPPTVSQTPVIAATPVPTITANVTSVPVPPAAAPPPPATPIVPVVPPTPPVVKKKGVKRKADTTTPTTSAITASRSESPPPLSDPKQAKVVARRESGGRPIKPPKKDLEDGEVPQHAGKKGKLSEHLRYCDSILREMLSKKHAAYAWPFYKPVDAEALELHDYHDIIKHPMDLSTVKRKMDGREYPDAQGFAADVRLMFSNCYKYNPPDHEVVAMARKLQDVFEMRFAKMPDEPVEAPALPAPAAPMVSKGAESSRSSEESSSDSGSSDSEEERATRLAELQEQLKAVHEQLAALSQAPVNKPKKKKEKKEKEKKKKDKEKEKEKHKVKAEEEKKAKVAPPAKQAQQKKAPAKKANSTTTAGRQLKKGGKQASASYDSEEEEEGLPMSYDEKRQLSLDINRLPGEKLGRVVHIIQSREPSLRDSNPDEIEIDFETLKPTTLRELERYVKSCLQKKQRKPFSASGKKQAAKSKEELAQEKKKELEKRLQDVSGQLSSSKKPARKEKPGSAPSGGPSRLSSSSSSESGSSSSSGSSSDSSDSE
Experiment: Binding affinity to BRD3 BD2 (unknown origin) assessed as dissociation constant
Measured Property: pKd
Answers are plain numbers, as −log10 of the molar value.

The reported Bromodomain-containing protein 3 (Homo sapiens) pKd of CC(=O)N1c2ccc(C(N)=O)cc2[C@H](Nc2ncc(Cl)cn2)C[C@@H]1C is 8.20

###

Assay: AUC(0 to 72 hrs) in KLH-TNP-induced T-cell dependent immunization CD-1 mouse model at 30 mg/kg, po administered every third day for 14 days
Format: ADME, organism-based
Set-up: dose 30 mg/kg, time 14 day, route po
Details: in vivo
Measured Property: AUC at 336 h

Sure, the documented AUC at 336 h for CC(=O)N1c2ccc(C(N)=O)cc2[C@H](Nc2ncc(Cl)cn2)C[C@@H]1C is 34 µM·h

###

Target: UniProtKB Q92793
Sequence (Q92793 whole entry): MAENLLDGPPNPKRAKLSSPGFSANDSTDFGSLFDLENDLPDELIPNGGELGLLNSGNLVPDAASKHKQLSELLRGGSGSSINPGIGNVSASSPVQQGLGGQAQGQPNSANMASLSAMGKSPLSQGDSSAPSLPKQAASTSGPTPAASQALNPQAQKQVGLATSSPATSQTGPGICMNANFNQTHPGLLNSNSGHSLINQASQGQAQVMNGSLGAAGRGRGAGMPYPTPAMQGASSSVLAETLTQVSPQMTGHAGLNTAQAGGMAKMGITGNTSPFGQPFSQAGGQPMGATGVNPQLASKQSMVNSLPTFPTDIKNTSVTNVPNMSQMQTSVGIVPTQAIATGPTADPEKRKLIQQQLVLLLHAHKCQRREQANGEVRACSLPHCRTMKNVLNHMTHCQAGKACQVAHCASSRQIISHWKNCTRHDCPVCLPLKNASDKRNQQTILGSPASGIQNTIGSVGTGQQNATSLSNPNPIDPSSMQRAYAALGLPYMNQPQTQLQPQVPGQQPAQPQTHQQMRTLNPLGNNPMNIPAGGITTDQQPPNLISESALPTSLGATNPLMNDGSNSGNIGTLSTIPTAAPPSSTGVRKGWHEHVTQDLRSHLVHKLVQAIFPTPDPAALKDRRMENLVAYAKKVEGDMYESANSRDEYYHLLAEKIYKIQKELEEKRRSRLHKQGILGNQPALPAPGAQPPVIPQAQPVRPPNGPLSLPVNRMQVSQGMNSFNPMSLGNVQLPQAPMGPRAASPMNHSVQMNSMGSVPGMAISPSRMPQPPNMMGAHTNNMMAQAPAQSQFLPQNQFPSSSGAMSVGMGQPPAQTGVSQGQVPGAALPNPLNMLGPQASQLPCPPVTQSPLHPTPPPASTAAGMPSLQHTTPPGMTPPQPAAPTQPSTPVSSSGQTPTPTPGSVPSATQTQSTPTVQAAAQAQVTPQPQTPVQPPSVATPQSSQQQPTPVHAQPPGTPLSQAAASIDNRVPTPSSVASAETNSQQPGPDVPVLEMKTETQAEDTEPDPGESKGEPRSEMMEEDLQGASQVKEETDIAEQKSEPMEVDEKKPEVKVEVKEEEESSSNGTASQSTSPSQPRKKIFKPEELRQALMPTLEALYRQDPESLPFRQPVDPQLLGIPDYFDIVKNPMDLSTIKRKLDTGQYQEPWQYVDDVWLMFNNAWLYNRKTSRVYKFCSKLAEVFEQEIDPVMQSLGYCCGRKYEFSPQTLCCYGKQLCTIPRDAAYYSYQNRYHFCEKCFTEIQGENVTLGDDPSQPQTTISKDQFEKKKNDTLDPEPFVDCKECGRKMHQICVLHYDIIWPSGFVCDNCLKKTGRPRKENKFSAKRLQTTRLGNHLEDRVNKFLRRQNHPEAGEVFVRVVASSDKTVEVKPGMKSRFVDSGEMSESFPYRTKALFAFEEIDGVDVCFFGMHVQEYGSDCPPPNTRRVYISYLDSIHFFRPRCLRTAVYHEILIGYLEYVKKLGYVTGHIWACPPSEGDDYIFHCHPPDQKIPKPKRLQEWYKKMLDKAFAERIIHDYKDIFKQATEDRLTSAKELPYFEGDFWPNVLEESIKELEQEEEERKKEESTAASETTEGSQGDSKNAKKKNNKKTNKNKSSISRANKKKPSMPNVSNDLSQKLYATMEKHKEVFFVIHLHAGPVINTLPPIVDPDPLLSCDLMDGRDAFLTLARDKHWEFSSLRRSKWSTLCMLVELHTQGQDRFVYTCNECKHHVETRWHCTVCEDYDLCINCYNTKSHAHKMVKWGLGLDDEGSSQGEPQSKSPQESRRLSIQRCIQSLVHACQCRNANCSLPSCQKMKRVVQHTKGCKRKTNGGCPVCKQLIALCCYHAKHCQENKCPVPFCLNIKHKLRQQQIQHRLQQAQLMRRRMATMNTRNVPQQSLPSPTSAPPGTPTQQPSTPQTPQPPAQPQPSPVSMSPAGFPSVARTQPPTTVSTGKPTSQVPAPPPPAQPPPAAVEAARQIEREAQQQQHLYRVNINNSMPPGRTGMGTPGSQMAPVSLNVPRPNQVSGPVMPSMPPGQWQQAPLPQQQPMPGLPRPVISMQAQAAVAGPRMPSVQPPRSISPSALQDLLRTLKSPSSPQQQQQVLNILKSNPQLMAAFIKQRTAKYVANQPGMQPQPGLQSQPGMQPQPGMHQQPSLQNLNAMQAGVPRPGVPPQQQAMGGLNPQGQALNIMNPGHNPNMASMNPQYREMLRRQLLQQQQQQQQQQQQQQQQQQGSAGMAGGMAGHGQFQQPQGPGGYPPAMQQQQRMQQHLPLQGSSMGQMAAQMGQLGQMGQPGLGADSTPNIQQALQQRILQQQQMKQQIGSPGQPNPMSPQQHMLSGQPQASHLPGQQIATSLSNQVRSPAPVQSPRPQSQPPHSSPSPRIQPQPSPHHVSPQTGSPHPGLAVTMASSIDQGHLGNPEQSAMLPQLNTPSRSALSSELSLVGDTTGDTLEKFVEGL
Measured Property: Kd

Sure, the documented Kd for CC(=O)N1c2ccc(C(N)=O)cc2[C@H](Nc2ncc(Cl)cn2)C[C@@H]1C is 2.51 µM

###

Assay: Unbound fraction in Wistar Han rat blood at 3 mg/kg, po or 1.3 mg/kg, iv measured upto 24 hrs by LC-MS/MS analysis
Format: ADME, organism-based
Measured Property: fraction unbound at 24 h
Numbers only.

Sure, the documented fraction unbound at 24 h for CC(=O)N1c2ccc(C(N)=O)cc2[C@H](Nc2ncc(Cl)cn2)C[C@@H]1C is 0.23

###

Biological target: Bromodomain-containing protein 4 (Homo sapiens)
Assay: Inhibition of BRD4 BD2 (unknown origin) incubated for 30 mins in presence of fluorescent ligand by TR-FRET method
For each record, write down the corresponding pIC50.
Answers are plain numbers, as −log10 of the molar value.

>  <Sample Smiles>
CC(=O)N1c2ccccc2[C@H](Nc2cnc(C#N)cn2)C[C@@H]1C

>  <Measured Property>
pIC50

>  <Observed>
5.90

$$$$
>  <Sample Smiles>
CCNC(=O)c1ccc2c(c1)[C@H](Nc1ccc(F)cn1)C[C@H](C)N2C(C)=O

>  <Measured Property>
pIC50

>  <Observed>
6.80

$$$$
>  <Sample Smiles>
CC(=O)N1c2ccccc2[C@H](Nc2ccc(C#N)cn2)C[C@@H]1C

>  <Measured Property>
pIC50

>  <Observed>
6.50

$$$$
>  <Sample Smiles>
CCNC(=O)c1ccc2c(c1)[C@H](Nc1ccc(C)cn1)C[C@H](C)N2C(C)=O

>  <Measured Property>
pIC50

>  <Observed>
6.80

$$$$

Query molecule follows.
Sure, the documented pIC50 for CCNC(=O)c1ccc2c(c1)[C@H](Nc1ccc(C#N)cn1)C[C@H](C)N2C(C)=O is 7.00
